# target.or.system: HLA-B*53:01
# protocol: IEDB peptide-MHC binding, purified MHC/competitive/radioactivity; bounds were set here for any values at or beyond the usual limits of such assays
# condition.details: source organism: Bordetella pertussis

>  <macromolecule.sequence>
SGEGRVNIG

>  <IC50 [µM]>
3.18

$$$$
>  <macromolecule.sequence>
VVETAQPLP

>  <IC50 [µM]>
69.9

$$$$
>  <macromolecule.sequence>
MHTIASILL

>  <IC50 [µM]>
7.4

$$$$

---

# target.or.system: HLA-B*44:03
# protocol: IEDB peptide-MHC binding, purified MHC/competitive/radioactivity; bounds were set here for any values at or beyond the usual limits of such assays
# condition.details: source organism: Bordetella pertussis

>  <macromolecule.sequence>
AQGKALLYR

>  <IC50>
≥ 70.1 µM

$$$$

The measured values listed here are drawn from the Immune Epitope Database (IEDB).
